# ASSAY_TARGET: Human GPR120 short form (Homo sapiens, UniProt Q5NUL3)
# Construct: expressed in transfected cells
# Sequence (Q5NUL3 whole entry): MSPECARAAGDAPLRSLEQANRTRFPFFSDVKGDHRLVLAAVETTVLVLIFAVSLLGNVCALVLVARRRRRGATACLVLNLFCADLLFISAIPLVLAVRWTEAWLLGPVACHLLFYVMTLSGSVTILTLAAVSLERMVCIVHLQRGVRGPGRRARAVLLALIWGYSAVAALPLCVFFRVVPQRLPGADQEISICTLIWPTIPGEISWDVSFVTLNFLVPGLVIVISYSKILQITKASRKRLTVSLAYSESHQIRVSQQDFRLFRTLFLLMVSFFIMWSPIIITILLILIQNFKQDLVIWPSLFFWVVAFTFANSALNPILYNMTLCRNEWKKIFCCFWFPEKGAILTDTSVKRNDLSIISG
# ASSAY: Human GPR120 calcium flux assay, Procedure Calcium B
# Assay type: cell-based
# MEASUREMENT_CONTEXT: HEK-293 cells expressing human GPR120 short form, 4200 cells/well, FLIPR
Sorting guide: entries reporting EC50 beneath 400 nM go in the True pile, the rest go in the False pile.

Determine if "Cc1ccc(-n2ccc(C(F)(F)F)c2COc2ccc(CCCO)c(C)c2C)cc1" shows EC50 strictly lower than 400 nM.
False

Determine if "COc1ccc(-n2ccc(C(F)(F)F)c2COc2c(F)cc(CCC(=O)O)cc2F)cn1" shows EC50 strictly lower than 400 nM.
True

Determine if "CCc1ccc(-n2ccc(C(F)(F)F)c2COc2c(F)cc(CCCO)cc2F)cn1" shows EC50 strictly lower than 400 nM.
True

Determine if CC(Cc1cc(F)c(OCc2c(C(F)(F)F)ccn2-c2ccc(F)cc2)c(F)c1)C(=O)O (centres unmarked) shows EC50 strictly lower than 400 nM.
False

Determine if "O=C(O)CCc1cc(F)c(OCc2c(C(F)(F)F)ccn2-c2ccccc2)c(F)c1" shows EC50 strictly lower than 400 nM.
True

Determine if "O=C(O)CCc1ccc(OCc2c(C(F)(F)F)ccn2-c2cccc(F)c2)cc1Cl" shows EC50 strictly lower than 400 nM.
False

Determine if "OCCCc1cc(F)c(OCc2c(C(F)(F)F)ccn2-c2ccccc2)c(F)c1" shows EC50 strictly lower than 400 nM.
True
